- Test system: biotinyl-Leu-oxazolone
- experiment: self-aminoacylation, catalytic enhancement (BLO) (fold over background); higher = more active; k-Seq, kA / k0A0; sequences stand for … in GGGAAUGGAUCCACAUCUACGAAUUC…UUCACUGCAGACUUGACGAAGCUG
Variants at the floor of the assay were thinned out.
Threshold check on self-aminoacylation: at or above 5 gives satisfied, strictly below gives not satisfied.

INSERT INTO measurements (seq_string, group) VALUES
  ('AAGUUUGCUAAGAGUCGAAAG [Fam3.1 aminoacylation ribozyme variant]', 'not satisfied'),
  ('AUUACCCUGGUGAUCAAGUGA [Fam2.1 aminoacylation ribozyme variant]', 'not satisfied'),
  ('CCGCAGUUCAAGCAAUCGGUC [Fam1B.1 aminoacylation ribozyme variant]', 'not satisfied'),
  ('CUUCCCCUGGUCAUCGAGUGA [Fam2.1 aminoacylation ribozyme variant]', 'satisfied');

====

- Test system: biotinyl-Met-oxazolone
- experiment: self-aminoacylation, catalytic enhancement (BMO) (fold over background); higher = more active; k-Seq, kA / k0A0; sequences stand for … in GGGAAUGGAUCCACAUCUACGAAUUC…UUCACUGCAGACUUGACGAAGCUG
Variants at the floor of the assay were thinned out.
test-readout: self-aminoacylation

INSERT INTO assay_data (seq_string, data_value) VALUES
  ('AUUCACCUGGGACAUCGGGUG [Fam2.2 aminoacylation ribozyme variant]', 7.06),
  ('AAGUUUGCUAAUUGUCGCUAG [Fam3.1 aminoacylation ribozyme variant]', 1),
  ('AAGAUUGCUAAUAGUCGCAUG [Fam3.1 aminoacylation ribozyme variant]', 1.45),
  ('AAGUUUCCUAUUAGUCGCAAG [Fam3.1 aminoacylation ribozyme variant]', 1.24),
  ('CCACAAUUCAAGCAGUCGGUC [Fam1B.1 aminoacylation ribozyme variant]', 1.11),
  ('CCACACUUCGAGCAAUCGAUC [Fam1B.1 aminoacylation ribozyme variant]', 0.361),
  ('CCACAUUUCAAGCAAUCGCUC [Fam1B.1 aminoacylation ribozyme variant]', 2),
  ('AUUACUCUAGUCAUCGAGUGA [Fam2.1 aminoacylation ribozyme variant]', 5.28),
  ('AUUGAUCUAGGUCAUCGGGUG [Fam2.2 aminoacylation ribozyme variant]', 6.53);

====

List of self-aminoacylation values.
- Tested on: biotinyl-Val-oxazolone
- experiment: self-aminoacylation, catalytic enhancement (BVO) (fold over background); higher = more active; k-Seq, kA / k0A0; sequences stand for … in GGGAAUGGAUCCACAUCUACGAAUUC…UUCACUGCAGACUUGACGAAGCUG
Variants at the floor of the assay were thinned out.
test-readout: self-aminoacylation

INSERT INTO assay_data (seq_string, test_readout, data_value) VALUES
  ('CCACAGUUCAAGCAAUCGGUG [Fam1B.1 aminoacylation ribozyme variant]', 'self-aminoacylation', 3.14),
  ('AUAUACCUAGGUCAUCGGGUG [Fam2.2 aminoacylation ribozyme variant]', 'self-aminoacylation', 2.74),
  ('CUUCACCUAGGUCAUGGGGUG [Fam2.2 aminoacylation ribozyme variant]', 'self-aminoacylation', 2.7),
  ('CUACUUCAAACAGUCGGUAUG [Fam1A.1 aminoacylation ribozyme variant]', 'self-aminoacylation', 0.552),
  ('UCACACUUCAAGCUAUCGGUC [Fam1B.1 aminoacylation ribozyme variant]', 'self-aminoacylation', 1.02),
  ('AAGCUUGCUAAUAGUCGCAAG [Fam3.1 aminoacylation ribozyme variant]', 'self-aminoacylation', 1.59),
  ('AUUAUCCUGGACAUCGAGUGA [Fam2.1 aminoacylation ribozyme variant]', 'self-aminoacylation', 3.06),
  ('AUUAGCCUGGUCAUCGGGUGA [Fam2.1 aminoacylation ribozyme variant]', 'self-aminoacylation', 7.06),
  ('AUUCACCUAGGUCACCGAGUG [Fam2.2 aminoacylation ribozyme variant]', 'self-aminoacylation', 1.99),
  ('AUUACCCUGGUCACCGAGUUA [Fam2.1 aminoacylation ribozyme variant]', 'self-aminoacylation', 1.75),
  ('AUUCACGUAGGUCACCGGGUG [Fam2.2 aminoacylation ribozyme variant]', 'self-aminoacylation', 5.08),
  ('AAGUUUGCUAAUAGGCGCAGG [Fam3.1 aminoacylation ribozyme variant]', 'self-aminoacylation', 0.965),
  ('AUUACUCUGGUCCUCGAGUGA [Fam2.1 aminoacylation ribozyme variant]', 'self-aminoacylation', 2.01),
  ('CCACACUUCAAGCAAUCGGCA [Fam1B.1 aminoacylation ribozyme variant]', 'self-aminoacylation', 1.37),
  ('AUUUCCCUGGUCAUCGGGUGA [Fam2.1 aminoacylation ribozyme variant]', 'self-aminoacylation', 11.6),
  ('AUUCACCGAGAUCAUCGGGUG [Fam2.2 aminoacylation ribozyme variant]', 'self-aminoacylation', 4.27),
  ('GUUACCCUGGACAUCGAGUGA [Fam2.1 aminoacylation ribozyme variant]', 'self-aminoacylation', 4.58),
  ('GUUCACCUAGGUCAUCGGGUG [Fam2.2 aminoacylation ribozyme variant]', 'self-aminoacylation', 12.5);

====

List of self-aminoacylation values.
- Test system: biotinyl-Trp-oxazolone
- experiment: self-aminoacylation, catalytic enhancement (BWO) (fold over background); higher = more active; k-Seq, kA / k0A0; sequences stand for … in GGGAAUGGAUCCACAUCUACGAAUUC…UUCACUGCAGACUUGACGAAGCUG
This sample holds only a part of the variants without activity.
test-readout: self-aminoacylation

INSERT INTO assay_data (seq_string, data_value) VALUES
  ('CAACACGUCAAGCAAUCGGUC [Fam1B.1 aminoacylation ribozyme variant]', 1.47),
  ('CUUCACCUAGCUCAUCGGGUG [Fam2.2 aminoacylation ribozyme variant]', 2.82),
  ('CCACAUUUCAAACAAUCGGUC [Fam1B.1 aminoacylation ribozyme variant]', 9.95),
  ('CUUCCCCUGGUCAUCGAGUGA [Fam2.1 aminoacylation ribozyme variant]', 7.51),
  ('CCACACUUCAACCCAUCGGUC [Fam1B.1 aminoacylation ribozyme variant]', 1.04),
  ('AAGUUUGCUAAUAGUAGCAAC [Fam3.1 aminoacylation ribozyme variant]', 0.859),
  ('AUUACCCUGGUCAACGAGUAA [Fam2.1 aminoacylation ribozyme variant]', 0.972),
  ('CCACACUUCAAGCAAUCGGGU [Fam1B.1 aminoacylation ribozyme variant]', 1.06),
  ('ACUACCCUGGUCAGCGAGUGA [Fam2.1 aminoacylation ribozyme variant]', 6.58),
  ('AUCCAACUAGGUCAUCGGGUG [Fam2.2 aminoacylation ribozyme variant]', 8.01),
  ('CCACACAUCAAGAAAUCGGUC [Fam1B.1 aminoacylation ribozyme variant]', 0.645),
  ('CCACACUUCAAGUAAUCGGGC [Fam1B.1 aminoacylation ribozyme variant]', 1.73),
  ('CCAAACUUCAAGGAAUCGGUC [Fam1B.1 aminoacylation ribozyme variant]', 5.42),
  ('AUUCACCUAGGUCCUCGGAUG [Fam2.2 aminoacylation ribozyme variant]', 0.587),
  ('AUUGACCUAGGUCAUCGGGUA [Fam2.2 aminoacylation ribozyme variant]', 31.5),
  ('AUCCACCUAGGGCAUCGGGUG [Fam2.2 aminoacylation ribozyme variant]', 4.35),
  ('AUAAUUCAAACAAUCGGUCUG [Fam1A.1 aminoacylation ribozyme variant]', 2.97),
  ('CUACUUCAACCAAGCGGUCUG [Fam1A.1 aminoacylation ribozyme variant]', 0.8);

====

- System: biotinyl-Trp-oxazolone
- experiment: self-aminoacylation, catalytic enhancement (BWO) (fold over background); higher = more active; k-Seq, kA / k0A0; sequences stand for … in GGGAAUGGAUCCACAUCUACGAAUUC…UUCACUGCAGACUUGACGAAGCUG
This sample holds only a part of the variants without activity.
test-readout: self-aminoacylation

INSERT INTO results (seq_string, system_name, data_value) VALUES
  ('CCACACUUCUAUCAAUCGGUC [Fam1B.1 aminoacylation ribozyme variant]', 'biotinyl-Trp-oxazolone', 0.659),
  ('AAAUUUGCUAAUAGUCGCAUG [Fam3.1 aminoacylation ribozyme variant]', 'biotinyl-Trp-oxazolone', 3.67),
  ('CUACUUCCAACAAUAGGUCUG [Fam1A.1 aminoacylation ribozyme variant]', 'biotinyl-Trp-oxazolone', 0.417),
  ('AUUACCUUGGUCACCGAGUGA [Fam2.1 aminoacylation ribozyme variant]', 'biotinyl-Trp-oxazolone', 6.72),
  ('CCACACCUCAAACAAUCGGUC [Fam1B.1 aminoacylation ribozyme variant]', 'biotinyl-Trp-oxazolone', 4.47),
  ('CUACUUCAAGCAAUCGGUCUC [Fam1A.1 aminoacylation ribozyme variant]', 'biotinyl-Trp-oxazolone', 6.61),
  ('AUUCACCCAGGUCAUCGGGUG [Fam2.2 aminoacylation ribozyme variant]', 'biotinyl-Trp-oxazolone', 4.53),
  ('CCACACUUCCCGCAAUCGGUC [Fam1B.1 aminoacylation ribozyme variant]', 'biotinyl-Trp-oxazolone', 1.37),
  ('AUGUUUGAUAAUAGUCGCAAG [Fam3.1 aminoacylation ribozyme variant]', 'biotinyl-Trp-oxazolone', 1.45),
  ('CUGCUUCAAACAAUCGGUAUG [Fam1A.1 aminoacylation ribozyme variant]', 'biotinyl-Trp-oxazolone', 40.2),
  ('ACGUUUGCUAAUUGUCGCAAG [Fam3.1 aminoacylation ribozyme variant]', 'biotinyl-Trp-oxazolone', 2.66),
  ('AUUACCCAGGUCAUCAAGUGA [Fam2.1 aminoacylation ribozyme variant]', 'biotinyl-Trp-oxazolone', 2.63),
  ('CCACACGUCAAGCAAUCGAUC [Fam1B.1 aminoacylation ribozyme variant]', 'biotinyl-Trp-oxazolone', 0.645),
  ('CUAGUUCAAACAACCGGUCUG [Fam1A.1 aminoacylation ribozyme variant]', 'biotinyl-Trp-oxazolone', 0.982),
  ('AUUACCUUGCUCAUCGAGUGA [Fam2.1 aminoacylation ribozyme variant]', 'biotinyl-Trp-oxazolone', 3.02),
  ('CCACACAUUAAGCAAUCGGUC [Fam1B.1 aminoacylation ribozyme variant]', 'biotinyl-Trp-oxazolone', 0.62),
  ('CCACACUUCAGGCAAUCGGGC [Fam1B.1 aminoacylation ribozyme variant]', 'biotinyl-Trp-oxazolone', 2.21),
  ('AAGCUCGCUAAUAGUCGCAAG [Fam3.1 aminoacylation ribozyme variant]', 'biotinyl-Trp-oxazolone', 2.2),
  ('CUACUUCGAACAAGCGGUCUG [Fam1A.1 aminoacylation ribozyme variant]', 'biotinyl-Trp-oxazolone', 0.528),
  ('AAGUUUCCUAAUAGUCGAAAG [Fam3.1 aminoacylation ribozyme variant]', 'biotinyl-Trp-oxazolone', 1.76),
  ('CUACUUCAAACGAUCGGCCUG [Fam1A.1 aminoacylation ribozyme variant]', 'biotinyl-Trp-oxazolone', 2.08),
  ('AAGUUUGCUCAUACUCGCAAG [Fam3.1 aminoacylation ribozyme variant]', 'biotinyl-Trp-oxazolone', 0.748),
  ('CCGCACUUCAAUCAAUCGGUC [Fam1B.1 aminoacylation ribozyme variant]', 'biotinyl-Trp-oxazolone', 28.7),
  ('AUUACCCUGGGCAUUGAGUGA [Fam2.1 aminoacylation ribozyme variant]', 'biotinyl-Trp-oxazolone', 11.9),
  ('AUUACCCUGGUGAUCAAGUGA [Fam2.1 aminoacylation ribozyme variant]', 'biotinyl-Trp-oxazolone', 4.2),
  ('AUUACCCUGGUCAUAGAGAGA [Fam2.1 aminoacylation ribozyme variant]', 'biotinyl-Trp-oxazolone', 0.77),
  ('AAGUUUUCUAAGAGUCGCAAG [Fam3.1 aminoacylation ribozyme variant]', 'biotinyl-Trp-oxazolone', 1.51),
  ('CUACUUCAAACAAUCGCUCGG [Fam1A.1 aminoacylation ribozyme variant]', 'biotinyl-Trp-oxazolone', 0.747),
  ('CUACUUUACACAAUCGGUCUG [Fam1A.1 aminoacylation ribozyme variant]', 'biotinyl-Trp-oxazolone', 0.543),
  ('AUUACCCCGGUCAACGAGUGA [Fam2.1 aminoacylation ribozyme variant]', 'biotinyl-Trp-oxazolone', 6.44),
  ('CUACUCCAAACAAUCGGACUG [Fam1A.1 aminoacylation ribozyme variant]', 'biotinyl-Trp-oxazolone', 0.909),
  ('CUACCUCUAACAAUCGGUCUG [Fam1A.1 aminoacylation ribozyme variant]', 'biotinyl-Trp-oxazolone', 0.565),
  ('AAGUUUGGUAAUAGUCGCACG [Fam3.1 aminoacylation ribozyme variant]', 'biotinyl-Trp-oxazolone', 1.09),
  ('CCACACUUCAAGCAAUCGUUC [Fam1B.1 aminoacylation ribozyme variant]', 'biotinyl-Trp-oxazolone', 0.675),
  ('AAGUUCGCUAAUAGUCGCAAC [Fam3.1 aminoacylation ribozyme variant]', 'biotinyl-Trp-oxazolone', 2.33);
